# TARGET_OR_TEST_SYSTEM: RSV attachment glycoprotein G (RSV-G Protein, His Tag) (respiratory syncytial virus) (UniProt O36633)
# Sequence: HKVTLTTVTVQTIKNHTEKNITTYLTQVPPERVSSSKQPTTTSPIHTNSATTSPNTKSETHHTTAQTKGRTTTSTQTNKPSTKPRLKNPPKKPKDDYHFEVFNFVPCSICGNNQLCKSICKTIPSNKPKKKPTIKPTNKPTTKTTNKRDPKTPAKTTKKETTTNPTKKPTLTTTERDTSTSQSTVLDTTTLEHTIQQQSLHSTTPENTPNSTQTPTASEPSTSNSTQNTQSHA
# ASSAY: fluorescence polarization
# MEASUREMENT_PARAMETERS: FP: PBS pH 7.4, 0.5 nM aptamer; filter binding: PBS, BSA, 0.1% Tween 20, 0.1 ug/ml poly(dIdC), 50 nM aptamer, 20 min RT; ALPHA: HBSS, 1 mg/ml BSA, 0.05 ug/ml …
METRIC: pKd
One number for each entry, as −log10 of the molar value.

pKd for TAGGGAAGAGAAGGACATATGATAGTGCGGTGAGCCGTCGGACATACAAATACTTGACTAGTACATGACCACTTGA [H8 (Alexa Fluor 488)] ?
7.52

The origin of these recorded values is paper PMC5318870.
